Test system: HeLa Kyoto;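 also: HeLa Kyoto cells arrested at G1/S by double thymidine block, proteins quantified by TMT10plex mass spectrometry in mild NP-40 versus SDS extracts, three biological replicates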
experimental-details: solubility in G1/S (NP-40 vs SDS abundance) (log2 ratio); higher = more soluble
measurement-setup: cell cycle stage: G1/S
Would you please tag the item Criterion met when its solubility in G1/S (log2) is 0.3 or above, and Criterion not met when it is below?

Some entries whose results are on file:
input-sequence	assigned-category
MSGESARSLGKGSAPPGPVPEGSIRIYSMRFCPFAERTRLVLKAKGIRHEVININLKNKPEWFFKKNPFGLVPVLENSQGQLIYESAITCEYLDEAYPGKKLLPDDPYEKACQKMILELFSKVPSLVGSFIRSQNKEDYAGLKEEFRKEFTKLEEVLTNKKTTFFGGNSISMIDYLIWPWFERLEAMKLNECVDHTPKLKLWMAAMKEDPTVSALLTSEKDWQGFLELYLQNSPEACDYGL [GSTO1]	Criterion met
MEGVELKEEWQDEDFPIPLPEDDSIEADILAITGPEDQPGSLEVNGNKVRKKLMAPDISLTLDPSDGSVLSDDLDESGEIDLDGLDTPSENSNEFEWEDDLPKPKTTEVIRKGSITEYTAAEEKEDGRRWRMFRIGEQDHRVDMKAIEPYKKVISHGGYYGDGLNAIVVFAVCFMPESSQPNYRYLMDNLFKYVIGTLELLVAENYMIVYLNGATTRRKMPSLGWLRKCYQQIDRRLRKNLKSLIIVHPSWFIRTLLAVTRPFISSKFSQKIRYVFNLAELAELVPMEYVGIPECIKQVDQELNGKQDEPKNEQ [BNIP2]	Criterion not met
MSHGPKQPGAAAAPAGGKAPGQHGGFVVTVKQERGEGPRAGEKGSHEEEPVKKRGWPKGKKRKKILPNGPKAPVTGYVRFLNERREQIRTRHPDLPFPEITKMLGAEWSKLQPTEKQRYLDEAEREKQQYMKELRAYQQSEAYKMCTEKIQEKKIKKEDSSSGLMNTLLNGHKGGDCDGFSTFDVPIFTEEFLDQNKAREAELRRLRKMNVAFEEQNAVLQRHTQSMSSARERLEQELALEERRTLALQQQLQAVRQALTASFASLPVPGTGETPTLGTLDFYMARLHGAIERDPAQHEKLIVRIKEILAQVASEHL [HMG20B]	Criterion met
MASIWVGHRGTVRDYPDFSPSVDAEAIQKAIRGIGTDEKMLISILTERSNAQRQLIVKEYQAAYGKELKDDLKGDLSGHFEHLMVALVTPPAVFDAKQLKKSMKGAGTNEDALIEILTTRTSRQMKDISQAYYTVYKKSLGDDISSETSGDFRKALLTLADGRRDESLKVDEHLAKQDAQILYKAGENRWGTDEDKFTEILCLRSFPQLKLTFDEYRNISQKDIVDSIKGELSGHFEDLLLAIVNCVRNTPAFLAERLHRALKGIGTDEFTLNRIMVSRSEIDLLDIRTEFKKHYGYSLYSAIKSDTSGDYEITLLKICGGDD [ANXA3]	Criterion not met
MARGQQKIQSQQKNAKKQAGQKKKQGHDQKAAAKAALIYTCTVCRTQMPDPKTFKQHFESKHPKTPLPPELADVQA [ZNF706]	Criterion not met

// switching to the query sequence
Record MANRGPAYGLSREVQQKIEKQYDADLEQILIQWITTQCRKDVGRPQPGRENFQNWLKDGTVLCELINALYPEGQAPVKKIQASTMAFKQMEQISQFLQAAERYGINTTDIFQTVDLWEGKNMACVQRTLMNLGGLAVARDDGLFSGDPNWFPKKSKENPRNFSDNQLQEGKNVIGLQMGTNRGASQAGMTGYGMPRQIL [TAGLN2] ; criterion: solubility in G1/S (log2) no lower than 0.3. Met?
Criterion met
